Where these numbers come from: patent US20120207760A1

Biological target: hemagglutinin (HA) of influenza A/Japan/305/57 H2N2 (Influenza A virus A/Japan/305/1957 …, UniProt P03451 16-562)
Test: ELISA, inactivated whole virions coated; transfection supernatant set 5
Field: OD450. Provide a value for each of the binders that follow.
Express your answer in OD450, writing the number without its unit.

QUERY: Can you look up the measured OD450 of TCN-557 (5081_A04) (antibody, V domains shown) VH: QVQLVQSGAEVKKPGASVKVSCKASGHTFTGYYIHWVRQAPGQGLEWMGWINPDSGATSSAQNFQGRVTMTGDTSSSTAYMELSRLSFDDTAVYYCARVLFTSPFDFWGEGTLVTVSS VL: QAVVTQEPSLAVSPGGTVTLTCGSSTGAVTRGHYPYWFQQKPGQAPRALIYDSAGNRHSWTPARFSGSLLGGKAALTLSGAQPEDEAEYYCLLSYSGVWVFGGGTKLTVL for me?
RESULT: 3.59

QUERY: Can you look up the measured OD450 of TCN-550 (5096_F06) (antibody, V domains shown) VH: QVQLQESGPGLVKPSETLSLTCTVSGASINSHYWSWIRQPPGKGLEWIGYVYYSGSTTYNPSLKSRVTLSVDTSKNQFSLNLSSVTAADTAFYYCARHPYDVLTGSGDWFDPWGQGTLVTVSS VL: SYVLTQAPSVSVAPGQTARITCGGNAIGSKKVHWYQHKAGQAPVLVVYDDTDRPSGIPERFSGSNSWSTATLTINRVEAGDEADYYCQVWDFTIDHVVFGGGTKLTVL for me?
RESULT: 0.08

QUERY: Can you look up the measured OD450 of TCN-553 (5261_C18) (antibody, V domains shown) VH: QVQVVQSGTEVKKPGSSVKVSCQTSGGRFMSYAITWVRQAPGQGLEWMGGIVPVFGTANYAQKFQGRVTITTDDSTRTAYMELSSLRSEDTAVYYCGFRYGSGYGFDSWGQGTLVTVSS VL: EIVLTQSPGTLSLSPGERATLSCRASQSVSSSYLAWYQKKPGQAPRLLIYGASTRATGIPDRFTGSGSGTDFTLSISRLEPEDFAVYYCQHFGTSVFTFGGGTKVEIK for me?
RESULT: 3.28
